Each recorded value in this set is attributed to patent US20160200799A1.

Assignment: determine reported Binding activity (absorbance at 492 nm) for the given binders.
Molecular target: Influenza virus A/Panama/2007/1999 (H3N2) (Influenza A virus A/Panama/2007/1999 (H3N2))
Assay: ELISA on coated viral particles
Give bare numbers.

Example binders with recorded Binding activity (absorbance at 492 nm):
[
  {
    "binder": "Group 37 representative clone F083-311, Fab-cp3-type antibody (Fab, V domains shown) VH: QVQLVQSGSEVKKPGSSVKVSCKASGGIFRTNAISYVRQAPGQGLEWMGGITAIFGTPNYAQKFQGRVTIIADESTSTVYMELGSLTSEDTAVYYCATSGTYYVSYFDSWGQGTLVTVSS VL: DIVMTQSPGTLTLSPGERATLSCRASQSLYSSHLAWYQQKPGQPPRLLIYGASTRAPGTPDRFSGSGSGTDFTLTITALDPEDSAVYYCQQYGSSPITFGQGTRLEIK",
    "Binding activity (absorbance at 492 nm)": 0.15
  },
  {
    "binder": "Group 42 representative clone F083-249, Fab-cp3-type antibody (Fab, V domains shown) VH: QVQLVQSGSEVKKPGSSVKVSCKASGVTFSSYAISWVRQAPGQGLEWMGGISPMFGTTRYAQKFQGRVTITADESTRTGFMELSSLRSGDTAVYYCARSPTYYPGALDMWGQGTTVTVSS VL: DVVMTQSPSLLSASVGDRVTITCRASQAIANFVSWFQQKPGEAPKSLIHAASTLQGGVPPRFSGSGYGAVFTLTITNLQPEDFATYFCQQYNSLPFTFGPGTDVEVR",
    "Binding activity (absorbance at 492 nm)": 1.15
  },
  {
    "binder": "Group 65 representative clone F083-366, Fab-cp3-type antibody (Fab, V domains shown) VH: QVQLVQSGSEVKKPGSSVKVSCKASRGIFSSYAISWVRQAPGQGLEWMGAVIPMFGTLKYAENFQGRITISADKSMSAAYMELSSLRSEDTAVYYCARNYYGSGTYFNDAFDIWGQGTMVTVSS VL: QSVLTQPPSGSGAPGQRVTISCTGGNSNIGAGYDVNGYQQLPGKAPKLLIYGNNNRPSGVPDRFSGSKSGTSASLAITGLQVEDEAHYYCQSYDNGLSGSVFGGGTQLTVLG",
    "Binding activity (absorbance at 492 nm)": 0.18
  },
  {
    "binder": "Group 52 representative clone F083-328, Fab-cp3-type antibody (Fab, V domains shown) VH: QVQLVQSGAEVKKPGSSVKLSCKASGGTLRSYALSWVRQAPGEGLEWMGGISAIFNTATYAQNVQGRVTITADESTNTFYLEVSSLRSDDTAVYYCATSGTYYVSFFDYWGQGTLVTVSS VL: DIVLTQSPSTLSASVGDRVTLTCRASQSIGSLMAWYQQQPGKPPKLLIYRASNLETGVPSRFTGSGSGTEFALTISSLQPDDVGTYYCQHFKTFSRTFGQGTKVEIK",
    "Binding activity (absorbance at 492 nm)": 0.22
  }
]

Query binder follows.
Return reported Binding activity (absorbance at 492 nm); argument: Group 44 representative clone F081-008, Fab-cp3-type antibody (Fab, V domains shown) VH: QVQLVQSGAEVKKPGSSVKVSCKASGGTFSSFSTYTISWVRQAPGQGLEWMGRSIPLLGITNYAQKFQGRVTITADISTSTAYMELSSLRSEDTAVYYCARYQSSDYYNSEYFQHWGQGTLVTVSS VL: EIVLTQSPGTLSLSLGERVTLSCRASQNVGTNYLAWYQQKPGQAPRLLIYGASSRATGVPDRFSGSGSGTDFTLTISRLAPEDFAVYYCQQYSSSPLTFGGGTKLEIK 0.17
